Attribution: patent US20130150350A1

- Tested on: HIV-1 replication in C8166 LTRluc cells
- assay.overview: C8166 HIV-1 luciferase assay
- Type: cell-based
- recorded.conditions: Human immunodeficiency virus 1, 72 h, inhibition of HIV-1 replication, moi 0.005, 3 days
EC50 strictly less than 400 nM = class 1. Otherwise class 0.

INSERT INTO measurements (compound, assayed_system, discrete_label) VALUES
  ('CN1c2ccc(Cl)cc2N(c2ccccc2)C(=O)c2cn(C)nc21 [Compound 4002]', 'HIV-1 replication in C8166 LTRluc cells', 'class 0'),
  ('CCN1c2ccc(Cl)cc2N(c2ccccc2)C(=O)c2c1ncn2C [Compound 5001]', 'HIV-1 replication in C8166 LTRluc cells', 'class 0');

Query :: Here's an entry: CN1c2ccc(Cl)cc2N(c2ccccc2)C(=O)c2cn(Cc3ccncc3)nc21 [Compound 4032] . Is its EC50 below 400 nM?
Result :: class 1

Query :: Here's an entry: CCN1C(=O)/C(=C/NCCOC)C(=O)N(c2ccccc2)c2cc(Cl)ccc21 [Compound 1004] . Is its EC50 below 400 nM?
Result :: class 0

Query :: Here's an entry: CCN1C(=O)N(c2ccc(C(=O)O)cc2)C(=O)N(c2ccccc2)c2cc(C(F)(F)F)ccc21 [Compound 3034] . Is its EC50 below 400 nM?
Result :: class 0

Query :: Here's an entry: CN1c2ccc(Cl)cc2N(c2ccccc2)C(=O)c2c[nH]nc21 [Compound 4007] . Is its EC50 below 400 nM?
Result :: class 0

---

- assayed.system: assembled HIV-1 capsid complexes (CA-NC protein, SEQ ID NO: 2) (Human immunodeficiency virus type 1 group M subtype B, UniProt P12493, G226D)
- Construct: HIV-1NL4-3 CA-NC, Gag residues 133-432; initiator Met (start codon introduced by PCR primer) (N); made in house; host or cells: E. coli BL21(DE3), pET-11a
- assay.overview: Capsid disassembly assay (CDA)
- Type: biochemical
IC50 strictly less than 0.3 µM = true (1). Otherwise false (0).

// known answers, use as guide
INSERT INTO assay_data (compound, discrete_label) VALUES
  ('CCN1C(=O)C(c2ccc(CN3CCNCC3)cc2)C(=O)N(c2ccccc2)c2cc(C(F)(F)F)ccc21 (stereo not shown)', 'true (1)'),
  ('CCN1C(=O)C(c2ccccc2)C(=O)N(c2ccccc2)c2cc(C(F)(F)F)ccc21 (stereo not shown)', 'false (0)'),
  ('COCCN/C=C1/C(=O)N(C)c2ccc(C(F)(F)F)cc2N(c2ccccc2)C1=O', 'false (0)'),
  ('CCN1C(=O)C2(CCc3ccccc32)C(=O)N(c2ccccc2)c2cc(C(F)(F)F)ccc21 (racemic)', 'false (0)');

Query :: Here's an entry: CCCn1cc(-c2cc(C3C(=O)N(CC)c4ccc(C(F)(F)F)cc4N(c4ccccc4)C3=O)cc(OC)c2O)cn1 (stereo not shown) . Is its IC50 below 0.3 µM?
Result :: true (1)

Query :: Here's an entry: CCN1C(=O)C(c2ccc(-c3cccnc3)cc2)C(=O)N(c2ccccc2)c2cc(C(F)(F)F)ccc21 (stereo not shown) . Is its IC50 below 0.3 µM?
Result :: false (0)

---

Below: a set of entries, each annotated with reported IC50.
- assayed.system: assembled HIV-1 capsid complexes (CA-NC protein, SEQ ID NO: 2) (Human immunodeficiency virus type 1 group M subtype B, UniProt P12493, G226D)
- Construct: HIV-1NL4-3 CA-NC, Gag residues 133-432; initiator Met (start codon introduced by PCR primer) (N); made in house; host or cells: E. coli BL21(DE3), pET-11a
- assay.overview: Capsid disassembly assay (CDA)
- Assay type: biochemical
# output: bare number, implied unit nM

INSERT INTO measurements (compound, measured_result) VALUES
  ('CCN1C(=O)C2(CCc3cc(-c4ccnn4C)ccc32)C(=O)N(c2ccccc2)c2cc(C(F)(F)F)ccc21 (stereo not shown) [Compound 7012]', 200),
  ('CCN1C(=O)C2(CCc3c2ccc(-c2cncnc2)c3OC)C(=O)N(c2ccccc2)c2cc(C(F)(F)F)ccc21 (stereo not shown) [Compound 7030]', 170),
  ('CCN1C(=O)C(c2ccccc2)C(=O)N(c2cccs2)c2cc(C(F)(F)F)ccc21 (stereo not shown) [Compound 2003]', 390);

// below: IC50 requested for another compound
Query :: Any idea what IC50 was measured for CN1C(=O)C(c2ccc(O)cc2)C(=O)N(c2ccccc2)c2cc(C(F)(F)F)ccc21 (stereo not shown) [Compound 2009] ?
Result :: 140

---

Below: a set of entries, each annotated with reported log10(EC50).
- Test system: HIV-1 replication in C8166 LTRluc cells
- assay.overview: C8166 HIV-1 luciferase assay
- Format: cell-based
- recorded.conditions: Human immunodeficiency virus 1, 72 h, inhibition of HIV-1 replication, moi 0.005, 3 days
Plainly stated, the numbers are log10 of EC50 given in nM.

Query :: Which measured log10(EC50) belongs to CN1C(=O)C(c2ccc(O)cc2)C(=O)N(c2ccccc2)c2cc(C(F)(F)F)ccc21 (stereo not shown) , tested on HIV-1 replication in C8166 LTRluc cells?
Result :: 2.95

Query :: Which measured log10(EC50) belongs to CCN1C(=O)C(c2ccccc2)C(=O)N(c2ccccc2)c2cc(C(F)(F)F)ccc21 (stereo not shown) , tested on HIV-1 replication in C8166 LTRluc cells?
Result :: 3.41

Query :: Which measured log10(EC50) belongs to COCCNCc1ccc(Cn2cnc3c2C(=O)N(c2ccccc2)c2cc(Cl)ccc2N3C)cc1 , tested on HIV-1 replication in C8166 LTRluc cells?
Result :: 2.95

Query :: Which measured log10(EC50) belongs to CCN1C(=O)C2(C=C(C)c3cc(O)ccc32)C(=O)N(c2ccccc2)c2cc(C(F)(F)F)ccc21 (stereo not shown) , tested on HIV-1 replication in C8166 LTRluc cells?
Result :: 3.00

Query :: Which measured log10(EC50) belongs to CCN1C(=O)C2(CCc3c2ccc(-c2cncnc2)c3OC)C(=O)N(c2ccccc2)c2cc(C(F)(F)F)ccc21 (stereo not shown) , tested on HIV-1 replication in C8166 LTRluc cells?
Result :: 2.78

Query :: Which measured log10(EC50) belongs to CCN1C(=O)C2(CCc3cc(-c4ccnn4C)ccc32)C(=O)N(c2ccccc2)c2cc(C(F)(F)F)ccc21 (stereo not shown) , tested on HIV-1 replication in C8166 LTRluc cells?
Result :: 2.30

---

- assayed.system: assembled HIV-1 capsid complexes (CA-NC protein, SEQ ID NO: 2) (Human immunodeficiency virus type 1 group M subtype B, UniProt P12493, G226D)
- Construct: HIV-1NL4-3 CA-NC, Gag residues 133-432; initiator Met (start codon introduced by PCR primer) (N); made in house; host or cells: E. coli BL21(DE3), pET-11a
- assay.overview: Capsid disassembly assay (CDA)
- Format: biochemical
- recorded.conditions: concentration for 50% disassembly of assembled complexes; 2 hours at room temperature; read-out: IC50 (μM) CDA
Below: a set of entries, each annotated with reported IC50.
# output: bare number, implied unit µM

Take a look at these entries with their results.
INSERT INTO assay_data (test_smiles, readout_units, measured_result) VALUES
  ('CCN1C(=O)/C(=C/NCCOC)C(=O)N(c2ccccc2)c2cc(Cl)ccc21', 'µM', 0.38),
  ('CCN1C(=O)N(c2ccc(CO)cc2)C(=O)N(c2ccccc2)c2cc(C(F)(F)F)ccc21', 'µM', 0.1);

Query :: Any idea what IC50 was measured for CCN1C(=O)N(c2ccc(O)c(-c3cccnc3)c2)C(=O)N(c2ccccc2)c2cc(C(F)(F)F)ccc21 ?
Result :: 0.14

Query :: Any idea what IC50 was measured for CCN1C(=O)N(c2ccc(C(=O)NC[C@@H]3CCCN3CC)cc2)C(=O)N(c2ccccc2)c2cc(C(F)(F)F)ccc21 ?
Result :: 0.13

Query :: Any idea what IC50 was measured for CCN1C(=O)N(c2ccccc2)C(=O)N(c2ccccc2)c2cc(C(F)(F)F)ccc21 ?
Result :: 0.18

Query :: Any idea what IC50 was measured for CCN1C(=O)N(c2ccc(C(=O)O)cc2)C(=O)N(c2ccccc2)c2cc(C(F)(F)F)ccc21 ?
Result :: 0.27

---

- assayed.system: HIV-1NL4-3 CA-NC protein (SEQ ID NO: 2) (Human immunodeficiency virus type 1 group M subtype B, UniProt P12493, G226D)
- Construct: HIV-1NL4-3 CA-NC, Gag residues 133-432; initiator Met (start codon introduced by PCR primer) (N); made in house; host or cells: E. coli BL21(DE3), pET-11a
- assay.overview: Immobilized capsid assembly assay (CAA)
- Format: biochemical
- recorded.conditions: concentration for 50% inhibition of capsid assembly; 2 μM CA-NC, 2 hours at room temperature; read-out: IC50 (μM) CAA
measured.endpoint: IC50 (µM)
# output: bare number, implied unit µM

Take a look at these entries with their results.
INSERT INTO measurements (test_smiles, measured_result) VALUES
  ('CN1c2cccc(F)c2N(c2ccccc2)C(=O)c2c1ncn2C', 0.32),
  ('CN1c2ccc(Cl)cc2N(c2ccccc2)C(=O)c2cn(C)nc21', 0.71);

// below: IC50 requested for another molecule
Query :: Any idea what IC50 was measured for CN1c2ccc(Cl)cc2N(c2ccccc2)C(=O)c2scnc21 ?
Result :: 1
